# SUBJECT_OF_TEST: Programmed cell death protein 1/Programmed cell death 1 ligand 1 (Homo sapiens) (UniProt Q15116+Q9NZQ7)
# EXPERIMENT_NOTES: Inhibition of human PD-1/PD-L1 interaction assessed as residual activity at 500 nM for 1 hr by HTRF assay relative to control
# Format: protein-complex assay
OBSERVABLE: Activity
Give your result as the value with the unit written after it.

INPUT: What value of Activity has been recorded for this entry: Cc1c(NC(=O)c2ccc(CNC(CO)CO)cn2)cccc1-c1ccc2c(c1)OCCN2C(=O)c1ccc(CNC(CO)CO)cc1
OUTPUT: 70%

INPUT: What value of Activity has been recorded for this entry: Cc1c(COc2ccc(CNC(CO)(CO)CO)cc2)cccc1-c1ccc2c(c1)OCCN2C(=O)c1ccc(CNC(CO)(CO)CO)cc1
OUTPUT: 83%

INPUT: What value of Activity has been recorded for this entry: Cc1c(COc2ccc(CNC(CO)CO)cc2)cccc1-c1ccc2c(c1)OCCN2C(=O)c1ccc(CNC(CO)CO)cc1
OUTPUT: 84%

INPUT: What value of Activity has been recorded for this entry: Cc1c(NC(=O)c2ccc(CNC(CO)(CO)CO)cn2)cccc1-c1ccc2c(c1)OCCN2C(=O)c1ccc(CNC(CO)(CO)CO)cc1
OUTPUT: 92%

---

# SUBJECT_OF_TEST: Programmed cell death protein 1/Programmed cell death 1 ligand 1 (Homo sapiens, UniProt Q9NZQ7)
# Sequence (Q15116 whole entry): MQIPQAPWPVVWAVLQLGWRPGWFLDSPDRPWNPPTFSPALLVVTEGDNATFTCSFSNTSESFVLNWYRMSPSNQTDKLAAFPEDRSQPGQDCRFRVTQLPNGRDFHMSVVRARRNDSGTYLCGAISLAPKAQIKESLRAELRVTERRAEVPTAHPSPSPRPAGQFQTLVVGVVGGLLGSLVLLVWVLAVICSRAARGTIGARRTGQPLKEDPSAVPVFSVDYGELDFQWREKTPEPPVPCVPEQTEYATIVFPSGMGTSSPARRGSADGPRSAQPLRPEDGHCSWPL
# Sequence (Q9NZQ7 whole entry): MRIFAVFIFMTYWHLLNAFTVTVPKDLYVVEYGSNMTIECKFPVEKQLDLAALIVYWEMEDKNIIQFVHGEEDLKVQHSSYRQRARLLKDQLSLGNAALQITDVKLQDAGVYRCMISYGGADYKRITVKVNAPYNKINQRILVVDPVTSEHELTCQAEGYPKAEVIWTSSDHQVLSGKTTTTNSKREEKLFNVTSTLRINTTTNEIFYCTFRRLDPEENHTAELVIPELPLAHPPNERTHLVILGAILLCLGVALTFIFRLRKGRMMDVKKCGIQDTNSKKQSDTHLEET
# EXPERIMENT_NOTES: Inhibition of human PD-1/PD-L1 interaction incubated for 1 hr by HTRF assay
OBSERVABLE: IC50
Give your result as the value with the unit written after it.

INPUT: What value of IC50 has been recorded for this entry: Cc1c(NC(=O)c2ccc(CNC(CO)(CO)CO)cn2)cccc1-c1ccc2c(c1)OCCN2C
OUTPUT: 77 nM

INPUT: What value of IC50 has been recorded for this entry: Cc1c(NC(=O)c2ccc(CNC(CO)CO)cn2)cccc1-c1ccc2c(c1)OCCN2C
OUTPUT: 109 nM

---

# SUBJECT_OF_TEST: Programmed cell death protein 1/Programmed cell death 1 ligand 1 (Homo sapiens)
# EXPERIMENT_NOTES: Inhibition of PD-1/PD-L1 interaction in human Jurkat T cells co-cultured with CHO/TCRAct/PDL1 cells assessed as restoration of T cell activation measured for 6 hrs by luminescence based immune checkpoint blockade assay
I'd appreciate it if you could supply pEC50 values for the items below.
Convention used: pEC50 is expressed as -log10 of the molar concentration.

INPUT: What value of pEC50 has been recorded for this entry: O=C(O)[C@@H]1CCCCN1Cc1ccc(OCc2cccc(-c3ccccc3)c2Br)c(Br)c1
OUTPUT: 5.18

INPUT: What value of pEC50 has been recorded for this entry: Cc1c(NC(=O)c2ccc(CNC(CO)(CO)CO)cn2)cccc1-c1ccc2c(c1)OCCN2C
OUTPUT: 4.59
